# key: entry, value: pIC50
Tested on: CN0375-F725-PDC KRAS spheroid viability
Experiment: Anticancer human tumor CN0375-F725-PDC patient-derived colon carcinoma cell line growth inhibition [KRAS2]
Conditions: curve of first compound; second compound 10 µM; spheroids with HUVEC and MSC
pIC50: −log10 of the molar value.
Observation Type: pIC50

INSERT INTO results (molecule, observation_type, modifier_sign, recorded_result) VALUES
  ('CC(=O)OC12COC1CC(O)C1(C)C(=O)C(O)C3=C(C)C(OC(=O)C(O)C(NC(=O)OC(C)(C)C)c4ccccc4)CC(O)(C(OC(=O)c4ccccc4)C21)C3(C)C (stereo not given) + CC1OCC2(CCN(c3cnc(Sc4ccnc(N)c4Cl)c(N)n3)CC2)C1N', 'pIC50', '<', 5.50),
  ('CC1(C)CCC(CN2CCN(c3ccc(C(=O)NS(=O)(=O)c4ccc(NCC5CCOCC5)c([N+](=O)[O-])c4)c(Oc4cnc5[nH]ccc5c4)c3)CC2)=C(c2ccc(Cl)cc2)C1 + C=CC(=O)N1CCN(c2nc(=O)n(-c3c(C)ccnc3C(C)C)c3nc(-c4c(O)cccc4F)c(F)cc23)C(C)C1', 'pIC50', '=', 5.20),
  ('CN(C)C/C=C/C(=O)Nc1cc2c(Nc3ccc(F)c(Cl)c3)ncnc2cc1O[C@H]1CCOC1 + CNCc1ccccc1-c1csc(C(C)Nc2nc(C)nc3cc(OC)c(OC)cc23)c1', 'pIC50', '>', 9.50),
  ('CCNC(=O)CC1N=C(c2ccc(Cl)cc2)c2cc(OC)ccc2-n2c(C)nnc21 (stereo not given) + C=CC(=O)N1CCN(c2nc(=O)n(-c3c(C)ccnc3C(C)C)c3nc(-c4c(O)cccc4F)c(F)cc23)C(C)C1', 'pIC50', '<', 5.00),
  ('CC(C)n1nc(-c2ccc3oc(N)nc3c2)c2c(N)ncnc21 + CC1OCC2(CCN(c3cnc(Sc4ccnc(N)c4Cl)c(N)n3)CC2)C1N', 'pIC50', '=', 8.11);

---

Tested on: CN0375-F725-PDC KRAS spheroid viability
Test: Anticancer human tumor CN0375-F725-PDC cell line growth inhibition [KRAS2]; active means viability on the fitted dose curve at most 10% of control; inactive means the rest;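 also: spheroids exposed to agents for 7 days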
Details: second compound 10 µM; first compound 0.000316 µM; spheroids with HUVEC and MSC
Outcomes: t = active, f = inactive

INSERT INTO assay_data (molecule, class_label) VALUES
  ('CC(C)n1nc(-c2ccc3oc(N)nc3c2)c2c(N)ncnc21 + COc1cc2nc(C)nc(NC(C)c3cc(N)cc(C(F)(F)F)c3)c2cc1OC1CCOC1', 'f'),
  ('CN(C)C/C=C/C(=O)Nc1cc2c(Nc3ccc(F)c(Cl)c3)ncnc2cc1O[C@H]1CCOC1 + CC1OCC2(CCN(c3cnc(Sc4ccnc(N)c4Cl)c(N)n3)CC2)C1N', 'f'),
  ('CC(=O)Nc1cccc(-n2c(=O)n(C3CC3)c(=O)c3c(Nc4ccc(I)cc4F)n(C)c(=O)c(C)c32)c1 + C=CC(=O)N1CCN(c2nc(=O)n(-c3c(C)ccnc3C(C)C)c3nc(-c4c(O)cccc4F)c(F)cc23)C(C)C1', 'f'),
  ('CC(C)n1nc(-c2ccc3oc(N)nc3c2)c2c(N)ncnc21 + C=CC(=O)N1CCN(c2nc(=O)n(-c3c(C)ccnc3C(C)C)c3nc(-c4c(O)cccc4F)c(F)cc23)C(C)C1', 'f'),
  ('CC(C)n1nc(-c2ccc3oc(N)nc3c2)c2c(N)ncnc21 + CNCc1ccccc1-c1csc(C(C)Nc2nc(C)nc3cc(OC)c(OC)cc23)c1', 't'),
  ('CC(=O)Nc1cccc(-n2c(=O)n(C3CC3)c(=O)c3c(Nc4ccc(I)cc4F)n(C)c(=O)c(C)c32)c1 + CC1OCC2(CCN(c3cnc(Sc4ccnc(N)c4Cl)c(N)n3)CC2)C1N', 'f'),
  ('Cn1ncnc1[C@H]1c2n[nH]c(=O)c3cc(F)cc(c23)N[C@@H]1c1ccc(F)cc1 + COc1cc2nc(C)nc(NC(C)c3cc(N)cc(C(F)(F)F)c3)c2cc1OC1CCOC1', 'f'),
  ('CC(=O)Nc1cccc(-n2c(=O)n(C3CC3)c(=O)c3c(Nc4ccc(I)cc4F)n(C)c(=O)c(C)c32)c1 + COc1cc2nc(C)nc(NC(C)c3cc(N)cc(C(F)(F)F)c3)c2cc1OC1CCOC1', 'f');

---

# key: entry, value: viability, T/C
System: CN0375-F725-PDC KRAS spheroid viability
Assay: Anticancer human tumor CN0375-F725-PDC cell line growth inhibition [KRAS2];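 also: spheroids exposed to agents for 7 days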
Details: second compound 3.16 µM; first compound 0.1 µM; stronger effect = lower value; spheroids with HUVEC and MSC
Observation Type: viability, T/C (%)

INSERT INTO assay_data (compound, recorded_result) VALUES
  ('CCN1CCN(Cc2ccc(Nc3ncc(F)c(-c4cc(F)c5nc(C)n(C(C)C)c5c4)n3)nc2)CC1 + COc1cc2nc(C)nc(NC(C)c3cc(N)cc(C(F)(F)F)c3)c2cc1OC1CCOC1', 70.7),
  ('CC(C)NCC(C(=O)N1CCN(c2ncnc3c2C(C)CC3O)CC1)c1ccc(Cl)cc1 (stereo not drawn) + CNCc1ccccc1-c1csc(C(C)Nc2nc(C)nc3cc(OC)c(OC)cc23)c1', 0.3),
  ('Cn1nccc1Nc1nccc(-c2cc3c(s2)C(C)(C)N(CCN2CCOCC2)C3=O)n1 + CNCc1ccccc1-c1csc(C(C)Nc2nc(C)nc3cc(OC)c(OC)cc23)c1', 0.29);

---

Tested on: CN0375-F725-PDC KRAS spheroid viability
Assay: Anticancer human tumor CN0375-F725-PDC cell line growth inhibition [KRAS2];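 also: spheroids exposed to agents for 7 days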
Details: second compound 3.16 µM; first compound 0.0316 µM; stronger effect = lower value; spheroids with HUVEC and MSC
Observation Type: viability, T/C (%)

INSERT INTO assay_data (molecule, scale_unit, recorded_result) VALUES
  ('CC(=O)OC12COC1CC(O)C1(C)C(=O)C(O)C3=C(C)C(OC(=O)C(O)C(NC(=O)OC(C)(C)C)c4ccccc4)CC(O)(C(OC(=O)c4ccccc4)C21)C3(C)C (stereo not drawn) + CNCc1ccccc1-c1csc(C(C)Nc2nc(C)nc3cc(OC)c(OC)cc23)c1', '%', 100),
  ('Cn1ncnc1[C@H]1c2n[nH]c(=O)c3cc(F)cc(c23)N[C@@H]1c1ccc(F)cc1 + CC1OCC2(CCN(c3cnc(Sc4ccnc(N)c4Cl)c(N)n3)CC2)C1N', '%', 75.5),
  ('CCNC(=O)CC1N=C(c2ccc(Cl)cc2)c2cc(OC)ccc2-n2c(C)nnc21 (stereo not drawn) + COc1cc2nc(C)nc(NC(C)c3cc(N)cc(C(F)(F)F)c3)c2cc1OC1CCOC1', '%', 79.1);

---

# key: entry, value: viability, T/C
Tested on: CN0375-F725-PDC KRAS spheroid viability
Test: Anticancer human tumor CN0375-F725-PDC cell line growth inhibition [KRAS2];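 also: spheroids exposed to agents for 7 days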
Details: second compound 1 µM; first compound 0.00316 µM; stronger effect = lower value; spheroids with HUVEC and MSC
Observation Type: viability, T/C (%)

INSERT INTO results (compound, test_system, recorded_result) VALUES
  ('CCN1CCN(Cc2ccc(Nc3ncc(F)c(-c4cc(F)c5nc(C)n(C(C)C)c5c4)n3)nc2)CC1 + COc1cc2nc(C)nc(NC(C)c3cc(N)cc(C(F)(F)F)c3)c2cc1OC1CCOC1', 'CN0375-F725-PDC KRAS spheroid viability', 91.1),
  ('CC(=O)Nc1cccc(-n2c(=O)n(C3CC3)c(=O)c3c(Nc4ccc(I)cc4F)n(C)c(=O)c(C)c32)c1 + COc1cc2nc(C)nc(NC(C)c3cc(N)cc(C(F)(F)F)c3)c2cc1OC1CCOC1', 'CN0375-F725-PDC KRAS spheroid viability', 44.1),
  ('CN(C)C/C=C/C(=O)Nc1cc2c(Nc3ccc(F)c(Cl)c3)ncnc2cc1O[C@H]1CCOC1 + CC1OCC2(CCN(c3cnc(Sc4ccnc(N)c4Cl)c(N)n3)CC2)C1N', 'CN0375-F725-PDC KRAS spheroid viability', 88.3),
  ('CC(C)n1nc(-c2ccc3oc(N)nc3c2)c2c(N)ncnc21 + C=CC(=O)N1CCN(c2nc(OCC3CCCN3C)nc3c2CCN(c2cccc4cccc(C)c24)C3)CC1CC#N', 'CN0375-F725-PDC KRAS spheroid viability', 75.1),
  ('CC(C)n1nc(-c2ccc3oc(N)nc3c2)c2c(N)ncnc21 + COc1cc2nc(C)nc(NC(C)c3cc(N)cc(C(F)(F)F)c3)c2cc1OC1CCOC1', 'CN0375-F725-PDC KRAS spheroid viability', 76),
  ('CCN1CCN(Cc2ccc(Nc3ncc(F)c(-c4cc(F)c5nc(C)n(C(C)C)c5c4)n3)nc2)CC1 + CNCc1ccccc1-c1csc(C(C)Nc2nc(C)nc3cc(OC)c(OC)cc23)c1', 'CN0375-F725-PDC KRAS spheroid viability', 76),
  ('Cn1ncnc1[C@H]1c2n[nH]c(=O)c3cc(F)cc(c23)N[C@@H]1c1ccc(F)cc1 + C=CC(=O)N1CCN(c2nc(=O)n(-c3c(C)ccnc3C(C)C)c3nc(-c4c(O)cccc4F)c(F)cc23)C(C)C1', 'CN0375-F725-PDC KRAS spheroid viability', 109),
  ('CC(=O)Nc1cccc(-n2c(=O)n(C3CC3)c(=O)c3c(Nc4ccc(I)cc4F)n(C)c(=O)c(C)c32)c1 + CNCc1ccccc1-c1csc(C(C)Nc2nc(C)nc3cc(OC)c(OC)cc23)c1', 'CN0375-F725-PDC KRAS spheroid viability', 18.2),
  ('Cn1ncnc1[C@H]1c2n[nH]c(=O)c3cc(F)cc(c23)N[C@@H]1c1ccc(F)cc1 + C=CC(=O)N1CCN(c2nc(OCC3CCCN3C)nc3c2CCN(c2cccc4cccc(C)c24)C3)CC1CC#N', 'CN0375-F725-PDC KRAS spheroid viability', 93.7),
  ('CCN1CCN(Cc2ccc(Nc3ncc(F)c(-c4cc(F)c5nc(C)n(C(C)C)c5c4)n3)nc2)CC1 + CC1OCC2(CCN(c3cnc(Sc4ccnc(N)c4Cl)c(N)n3)CC2)C1N', 'CN0375-F725-PDC KRAS spheroid viability', 82.3),
  ('Cn1ncnc1[C@H]1c2n[nH]c(=O)c3cc(F)cc(c23)N[C@@H]1c1ccc(F)cc1 + CC1OCC2(CCN(c3cnc(Sc4ccnc(N)c4Cl)c(N)n3)CC2)C1N', 'CN0375-F725-PDC KRAS spheroid viability', 83.5),
  ('CN(C)C/C=C/C(=O)Nc1cc2c(Nc3ccc(F)c(Cl)c3)ncnc2cc1O[C@H]1CCOC1 + COc1cc2nc(C)nc(NC(C)c3cc(N)cc(C(F)(F)F)c3)c2cc1OC1CCOC1', 'CN0375-F725-PDC KRAS spheroid viability', 87.3),
  ('CN(C)C/C=C/C(=O)Nc1cc2c(Nc3ccc(F)c(Cl)c3)ncnc2cc1O[C@H]1CCOC1 + CNCc1ccccc1-c1csc(C(C)Nc2nc(C)nc3cc(OC)c(OC)cc23)c1', 'CN0375-F725-PDC KRAS spheroid viability', 53.1),
  ('CC(=O)Nc1cccc(-n2c(=O)n(C3CC3)c(=O)c3c(Nc4ccc(I)cc4F)n(C)c(=O)c(C)c32)c1 + C=CC(=O)N1CCN(c2nc(=O)n(-c3c(C)ccnc3C(C)C)c3nc(-c4c(O)cccc4F)c(F)cc23)C(C)C1', 'CN0375-F725-PDC KRAS spheroid viability', 51.1),
  ('CC(C)n1nc(-c2ccc3oc(N)nc3c2)c2c(N)ncnc21 + CNCc1ccccc1-c1csc(C(C)Nc2nc(C)nc3cc(OC)c(OC)cc23)c1', 'CN0375-F725-PDC KRAS spheroid viability', 37.8),
  ('CN(C)C/C=C/C(=O)Nc1cc2c(Nc3ccc(F)c(Cl)c3)ncnc2cc1O[C@H]1CCOC1 + C=CC(=O)N1CCN(c2nc(OCC3CCCN3C)nc3c2CCN(c2cccc4cccc(C)c24)C3)CC1CC#N', 'CN0375-F725-PDC KRAS spheroid viability', 83.4),
  ('CCN1CCN(Cc2ccc(Nc3ncc(F)c(-c4cc(F)c5nc(C)n(C(C)C)c5c4)n3)nc2)CC1 + C=CC(=O)N1CCN(c2nc(=O)n(-c3c(C)ccnc3C(C)C)c3nc(-c4c(O)cccc4F)c(F)cc23)C(C)C1', 'CN0375-F725-PDC KRAS spheroid viability', 104),
  ('CC(C)n1nc(-c2ccc3oc(N)nc3c2)c2c(N)ncnc21 + C=CC(=O)N1CCN(c2nc(=O)n(-c3c(C)ccnc3C(C)C)c3nc(-c4c(O)cccc4F)c(F)cc23)C(C)C1', 'CN0375-F725-PDC KRAS spheroid viability', 75.1),
  ('Cn1ncnc1[C@H]1c2n[nH]c(=O)c3cc(F)cc(c23)N[C@@H]1c1ccc(F)cc1 + CNCc1ccccc1-c1csc(C(C)Nc2nc(C)nc3cc(OC)c(OC)cc23)c1', 'CN0375-F725-PDC KRAS spheroid viability', 47.8),
  ('CN(C)C/C=C/C(=O)Nc1cc2c(Nc3ccc(F)c(Cl)c3)ncnc2cc1O[C@H]1CCOC1 + C=CC(=O)N1CCN(c2nc(=O)n(-c3c(C)ccnc3C(C)C)c3nc(-c4c(O)cccc4F)c(F)cc23)C(C)C1', 'CN0375-F725-PDC KRAS spheroid viability', 84.7),
  ('CC(=O)Nc1cccc(-n2c(=O)n(C3CC3)c(=O)c3c(Nc4ccc(I)cc4F)n(C)c(=O)c(C)c32)c1 + CC1OCC2(CCN(c3cnc(Sc4ccnc(N)c4Cl)c(N)n3)CC2)C1N', 'CN0375-F725-PDC KRAS spheroid viability', 42.5),
  ('CC(C)n1nc(-c2ccc3oc(N)nc3c2)c2c(N)ncnc21 + CC1OCC2(CCN(c3cnc(Sc4ccnc(N)c4Cl)c(N)n3)CC2)C1N', 'CN0375-F725-PDC KRAS spheroid viability', 68.6);
